# Measurement Description: Plasma pharmacokinetics of BI 187004 after single oral doses (LC–MS/MS)
# Test Context: male, human, plasma, po, 160 mg, BI 187004 plasma concentrations, 160 mg single oral, planned time 0.5 h, Mean
Parameter Measured: concentration at 0.5 h (µM)
One number for each entry, in µM.

Exercise: State the recorded concentration at 0.5 h for this entry: N#Cc1ccc2c(c1)[C@H]1CCCN(C(=O)c3ccc4[nH]cnc4c3)[C@H]1C2 [BI 187004]
Solution: 6.38

----------
# Measurement Description: Plasma pharmacokinetics of BI 187004 after single oral doses (LC–MS/MS)
# Test Context: male, human, plasma, po, 360 mg, BI 187004 plasma concentrations, gMean, 360 mg single oral, planned time 48 h
Parameter Measured: concentration at 48 h
Please give the number followed by its unit.

Exercise: // returns reported concentration at 48 h for input "N#Cc1ccc2c(c1)[C@H]1CCCN(C(=O)c3ccc4[nH]cnc4c3)[C@H]1C2"
Solution: 814 nM

----------
# Measurement Description: Plasma pharmacokinetics of BI 187004 after single oral doses (LC–MS/MS)
# Test Context: male, human, plasma, po, 40 mg, BI 187004 plasma concentrations, 40 mg single oral, planned time 24 h, gMean
Parameter Measured: concentration at 24 h (nM)
Give bare numbers, in nM.

Exercise: Request the reported concentration at 24 h associated with N#Cc1ccc2c(c1)[C@H]1CCCN(C(=O)c3ccc4[nH]cnc4c3)[C@H]1C2 [BI 187004]
Solution: 321

----------
# Measurement Description: BI 187004 concentration in subcutaneous adipose tissue biopsies (LC–MS/MS)
# Format: in vivo, human
# Test Context: male, human, subcutaneous adipose tissue / plasma, oral; 360 mg single dose; 10 h; read-out: AT:plasma ratio (range) 10 h
Parameter Measured: Kp at 10 h
One number for each entry.

Exercise: Request the reported Kp at 10 h associated with N#Cc1ccc2c(c1)[C@H]1CCCN(C(=O)c3ccc4[nH]cnc4c3)[C@H]1C2 [BI 187004]
Solution: 16.2

----------
# Measurement Description: Plasma pharmacokinetics of BI 187004 after single oral doses (LC–MS/MS)
# Test Context: male, human, plasma, po, 10 mg, Plasma concentration gMean, 10 mg single oral; 3 h
Parameter Measured: concentration at 3 h (nM)
Numbers only, in nM.

Exercise: Give its concentration at 3 h value. Item: "N#Cc1ccc2c(c1)[C@H]1CCCN(C(=O)c3ccc4[nH]cnc4c3)[C@H]1C2"
Solution: 336

----------
# Measurement Description: Plasma pharmacokinetics of BI 187004 after single oral doses (LC–MS/MS)
# Test Context: male, human, plasma, po, 160 mg, BI 187004 plasma concentrations, 160 mg single oral, planned time 24 h, Mean
Parameter Measured: concentration at 24 h
Please state the number and follow it with the unit.

Exercise: What value of concentration at 24 h has been reported for the following compound? "N#Cc1ccc2c(c1)[C@H]1CCCN(C(=O)c3ccc4[nH]cnc4c3)[C@H]1C2"
Solution: 1680 nM

----------
# Measurement Description: Plasma pharmacokinetics of BI 187004 after single oral doses (LC–MS/MS)
# Test Context: male, human, plasma, po, 20 mg, BI 187004 plasma concentrations, 20 mg single oral, planned time 2.5 h, Max
Parameter Measured: concentration at 2.5 h (nM)
One number for each entry, in nM.

Exercise: Which value of concentration at 2.5 h has been reported for N#Cc1ccc2c(c1)[C@H]1CCCN(C(=O)c3ccc4[nH]cnc4c3)[C@H]1C2 [BI 187004] in the records?
Solution: 1060
